System: NCI-H23 lung
Test: NCI-60 one-dose screen, 48 h
Conditions: 10 µM unless noted
About 83,000 compounds went through this panel and 20% of them were active in at least one assay; those are over-represented in the sample as a whole. Activity calls are given as the source filed them. Rule for the calls: active = growth percent below 10; inactive = the rest.
Field 'call' accepts active, inactive

Here's what some known entries look like.
C[C@]12CC[C@H]3[C@@H](CC[C@H]4C[C@@H](O)CC[C@@]43C)[C@@H]1CC(=O)C2 = inactive
COc1cccc(-c2cc(-c3cc4ccccc4oc3=O)nc(N)n2)c1 = inactive
CC(=O)/C(=C/c1ccc(-c2ccccc2)cc1)C(=O)c1ccccc1 = inactive
CC(C)OC(=O)c1ccc2n1CCCc1cnc(Nc3ccccc3)nc1-2 = inactive
COc1cc2ncnc(-n3ncc4cc(NC(=O)Nc5ccc(Cl)c(Cl)c5)ccc43)c2cc1OC = active

Call for entry COCn1c(C(=O)OC)cc2oc(/C=C3/SC(=S)N(N)C3=O)cc21 :
inactive

Call for entry O=Nc1ccc(O)c2ccccc12 :
active

Call for entry O=C(N/N=C/c1coc2ccccc2c1=O)c1cc2oc(-c3ccccc3)cc2[nH]1 :
inactive

Call for entry CCS(=O)(=O)N[C@@H]1O[C@H](COC(C)=O)C(OC(C)=O)[C@H](OC(C)=O)C1OC(C)=O (stereo not given in full) :
inactive

Call for entry COc1ccc(-c2nc(SCC(C)C)nc(Nc3ccc(C(=O)O)cc3)c2C#N)cc1 :
inactive

Data provenance: PubChem BioAssay (NCI)
